Molecular target: T1, human IL-22 receptor (human IL-22Ra and human IL-10Rb) on cells (human, UniProt Q8N6P7 16-574; Q08334 20-325)
T1 sequence (looked up) 1: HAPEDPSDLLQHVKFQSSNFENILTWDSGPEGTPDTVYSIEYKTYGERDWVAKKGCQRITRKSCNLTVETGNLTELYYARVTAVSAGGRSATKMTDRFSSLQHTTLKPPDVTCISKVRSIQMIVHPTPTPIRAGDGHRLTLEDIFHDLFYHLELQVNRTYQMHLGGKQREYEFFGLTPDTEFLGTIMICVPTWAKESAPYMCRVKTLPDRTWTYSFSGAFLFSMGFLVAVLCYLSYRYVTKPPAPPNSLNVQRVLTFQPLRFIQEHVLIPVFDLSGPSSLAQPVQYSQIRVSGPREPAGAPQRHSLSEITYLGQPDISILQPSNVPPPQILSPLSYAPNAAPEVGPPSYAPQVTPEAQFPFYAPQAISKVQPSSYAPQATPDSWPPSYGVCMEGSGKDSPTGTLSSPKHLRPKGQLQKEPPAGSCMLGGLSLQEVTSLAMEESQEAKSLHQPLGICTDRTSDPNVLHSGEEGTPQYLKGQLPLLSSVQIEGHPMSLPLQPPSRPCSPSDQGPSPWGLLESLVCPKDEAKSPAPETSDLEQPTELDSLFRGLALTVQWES
T1 sequence (looked up) 2: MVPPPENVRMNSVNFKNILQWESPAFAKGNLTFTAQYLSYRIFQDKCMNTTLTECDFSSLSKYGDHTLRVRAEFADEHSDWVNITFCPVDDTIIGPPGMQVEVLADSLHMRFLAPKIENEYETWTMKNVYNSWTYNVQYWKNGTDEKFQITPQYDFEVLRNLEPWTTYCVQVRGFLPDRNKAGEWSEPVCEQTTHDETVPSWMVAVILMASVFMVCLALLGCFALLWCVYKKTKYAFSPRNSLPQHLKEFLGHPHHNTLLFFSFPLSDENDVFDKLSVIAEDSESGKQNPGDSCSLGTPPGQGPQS
Assay: cell-based or functional assay
quantity.name: EC50, pSTAT3 (AlphaScreen SureFire STAT3 p-Tyr705) in HepG2 cells (nM)
# number only, unit nM dropped from output

Task: Provide one value: measured EC50, pSTAT3 (AlphaScreen SureFire STAT3 p-Tyr705) in HepG2 cells of native mature human IL-22 (hIL-22) (ligand) APISSHCRLDKSNFQQPYITNRTFMLAKEASLADNNTDVRLIGEKLFHGVSMSERCYLMKQVLNFTLEEVLFPQSDRFQPYMQEVVPFLARLSNRLSTCHIEGDDLHIQRNVQKLKDTVKKLGESGEIKAIGELDLLFMSLRNACI
Result: 3.88

# credit: patent US20220347304A1
